# System: P-388 cells
# Assay summary: Antineoplastic action against implanted P-388 cells (ip-ip), survival T/C
# Assay type: in vivo, CDFl mice
# Recorded conditions: Table 6, P388, intraperitoneal, dose 0.5 mg/kg
Value type: T/C % (Treatment/Control %)

[[record]]
compound = "COc1ccc(CC2C(=O)NC(C)C(=O)N(C)C3Cc4ccc(cc4)Oc4cc(ccc4OC(=O)C(C)C)CC(C(=O)NC(C)C(=O)NC(C)C(=O)N2C)N(C)C3=O)cc1 (stereo not drawn) [Ex. 25]"
study_target = "P-388 cells"
value_type = "T/C % (Treatment/Control %)"
assay_value = 150.7

[[record]]
compound = "CCCC(=O)Oc1ccc2cc1Oc1ccc(cc1)CC1C(=O)N(C)C(C2)C(=O)NC(C)C(=O)NC(C)C(=O)N(C)C(Cc2ccc(OC)cc2)C(=O)NC(C)C(=O)N1C (stereo not drawn) [Ex. 24]"
study_target = "P-388 cells"
value_type = "T/C % (Treatment/Control %)"
assay_value = 144.2

[[record]]
compound = "CCOC(=O)CCCOc1ccc2cc1Oc1ccc(cc1)CC1C(=O)N(C)C(C2)C(=O)NC(C)C(=O)NC(C)C(=O)N(C)C(Cc2ccc(OC)cc2)C(=O)NC(C)C(=O)N1C (stereo not drawn) [Ex. 19(2), ethoxycarbonylpropylether (2) of TPC-A]"
study_target = "P-388 cells"
value_type = "T/C % (Treatment/Control %)"
assay_value = 139.6

[[record]]
compound = "CCCCCCOc1ccc2cc1Oc1ccc(cc1)CC1C(=O)N(C)C(C2)C(=O)NC(C)C(=O)NC(C)C(=O)N(C)C(Cc2ccc(OC)cc2)C(=O)NC(C)C(=O)N1C (stereo not drawn) [Ex. 2, n-hexylether of the compound TPC-A]"
study_target = "P-388 cells"
value_type = "T/C % (Treatment/Control %)"
assay_value = 137.3

[[record]]
compound = "COc1ccc(CC2C(=O)NC(C)C(=O)N(C)C3Cc4ccc(cc4)Oc4cc(ccc4OC4CCCCO4)CC(C(=O)NC(C)C(=O)NC(C)C(=O)N2C)N(C)C3=O)cc1 (stereo not drawn) [Ex. 20, tetrahydropyranylether of TPC-A]"
study_target = "P-388 cells"
value_type = "T/C % (Treatment/Control %)"
assay_value = 164.3

[[record]]
compound = "CCCCCC(=O)Oc1ccc2cc1Oc1ccc(cc1)CC1C(=O)N(C)C(C2)C(=O)NC(C)C(=O)NC(C)C(=O)N(C)C(Cc2ccc(OC)cc2)C(=O)NC(C)C(=O)N1C (stereo not drawn) [Ex. 21, caproate of TPC-A]"
study_target = "P-388 cells"
value_type = "T/C % (Treatment/Control %)"
assay_value = 143.2


----------
Listed here: items and their measured T/C % (Treatment/Control %).
# Tested on: P-388 cells
# Assay summary: Antineoplastic action against implanted P-388 cells (ip-ip), survival T/C
# Assay type: in vivo, CDFl mice
# Recorded conditions: Table 6, P388, intraperitoneal, dose 0.05 mg/kg
Value type: T/C % (Treatment/Control %)

[[record]]
compound = "CCOC(=O)CCCOc1ccc2cc1Oc1ccc(cc1)CC1C(=O)N(C)C(C2)C(=O)NC(C)C(=O)NC(C)C(=O)N(C)C(Cc2ccc(OC)cc2)C(=O)NC(C)C(=O)N1C (stereo not shown)"
assay_value = "113.8%"

[[record]]
compound = "CC=CC(=O)Oc1ccc2cc1Oc1ccc(cc1)CC1C(=O)N(C)C(C2)C(=O)NC(C)C(=O)NC(C)C(=O)N(C)C(Cc2ccc(OC)cc2)C(=O)NC(C)C(=O)N1C (stereo not shown)"
assay_value = "124.1%"

[[record]]
compound = "CCCC(C)C(=O)Oc1ccc2cc1Oc1ccc(cc1)CC1C(=O)N(C)C(C2)C(=O)NC(C)C(=O)NC(C)C(=O)N(C)C(Cc2ccc(OC)cc2)C(=O)NC(C)C(=O)N1C (stereo not shown)"
assay_value = "116.6%"

[[record]]
compound = "CCCCCOc1ccc2cc1Oc1ccc(cc1)CC1C(=O)N(C)C(C2)C(=O)NC(C)C(=O)NC(C)C(=O)N(C)C(Cc2ccc(OC)cc2)C(=O)NC(C)C(=O)N1C (stereo not shown)"
assay_value = "122.2%"

[[record]]
compound = "COc1ccc(CC2C(=O)NC(C)C(=O)N(C)C3Cc4ccc(cc4)Oc4cc(ccc4OC(C)C)CC(C(=O)NC(C)C(=O)NC(C)C(=O)N2C)N(C)C3=O)cc1 (stereo not shown)"
assay_value = "142.4%"

[[record]]
compound = "CCCCCC(=O)Oc1ccc2cc1Oc1ccc(cc1)CC1C(=O)N(C)C(C2)C(=O)NC(C)C(=O)NC(C)C(=O)N(C)C(Cc2ccc(OC)cc2)C(=O)NC(C)C(=O)N1C (stereo not shown) [Ex. 21, caproate of TPC-A]"
assay_value = "133.6%"

[[record]]
compound = "CCCC(=O)Oc1ccc2cc1Oc1ccc(cc1)CC1C(=O)N(C)C(C2)C(=O)NC(C)C(=O)NC(C)C(=O)N(C)C(Cc2ccc(OC)cc2)C(=O)NC(C)C(=O)N1C (stereo not shown)"
assay_value = "125.1%"

[[record]]
compound = "CCC(C)CC(=O)Oc1ccc2cc1Oc1ccc(cc1)CC1C(=O)N(C)C(C2)C(=O)NC(C)C(=O)NC(C)C(=O)N(C)C(Cc2ccc(OC)cc2)C(=O)NC(C)C(=O)N1C (stereo not shown)"
assay_value = "114.6%"

[[record]]
compound = "COc1ccc(CC2C(=O)NC(C)C(=O)N(C)C3Cc4ccc(cc4)Oc4cc(ccc4OC(=O)CCC(C)C)CC(C(=O)NC(C)C(=O)NC(C)C(=O)N2C)N(C)C3=O)cc1 (stereo not shown) [Ex. 40, 4-methyl valerate]"
assay_value = "111.6%"

[[record]]
compound = "CCC(=O)Oc1ccc2cc1Oc1ccc(cc1)CC1C(=O)N(C)C(C2)C(=O)NC(C)C(=O)NC(C)C(=O)N(C)C(Cc2ccc(OC)cc2)C(=O)NC(C)C(=O)N1C (stereo not shown)"
assay_value = "129.0%"

